Taken from ChEMBL document CHEMBL1201862.

test system: OVCAR-8; experiment: NCI tumour cell line growth inhibition, 48 h
Activity calls are given as the source filed them. Cut-off read from the data, not from the text of the source: active = GI50 up to about 1.1 µM and inactive = higher.

compound: CCOC(=O)/C=C(/OCC)[C@@H]1C(C(=O)c2ccc(Cl)cc2)[C@H]1/C(=C\C(=O)OCC)OCC (stereo not given in full)
GI50: > 100 µM (inactive)
//
compound: O=C1CC(Cl)c2c1csc2Br (stereo not given)
GI50: 16.3 µM (inactive)
//
compound: CC1C(OS(=O)(=O)c2ccc3nc(S)sc3c2)CC2C3(C)CCC2(C(C)C(=O)O)C(O)C13 (stereo not given)
GI50: 20.1 µM (inactive)
//
compound: COc1cccc2c1C(=O)c1c(O)c3c(c(O)c1C2=O)CC(O)(C(=O)CO)CC3OC1CC(N)C(I)C(C)O1 (stereo not given)
GI50: 3.58 µM (inactive)
//
compound: CCCCCc1c(CCCC)c(=O)[nH]c2cc(CNCC(OC)OC)ccc12
GI50: 16.3 µM (inactive)
